- SYSTEM_UNDER_TEST: T1, mouse serum albumin (mouse, UniProt P07724 25-608)
- T1 construct: Bought protein, immobilized on a CM5 chip by amine coupling; also called Mouse SA
- METHOD_SUMMARY: SPR (Biacore 8K), albumin immobilized on CM5 chip, 25 C, 1:1 kinetic fit
# kon per record follows

{"BINDER": "RLN Analog 2 (other, Single-chain fusion: VHH - (PGPA)8 L1 - RLN2 A chain - L2 - RLN2 B chain (desB1)) EVQLLESGGGLVQPGGSLRLSCAASGRYIDETAVAWFRQAPGKEREFVAGIGGGVDITYYADSVKGRFTISRDNSKNTLYLQMNSLRPEDTAVYYCAARPGRPLITSKVADLYPYWGQGTLVTVSSPGPAPGPAPGPAPGPAPGPAPGPAPGPAPGPAQLYSALANKCCHVGCTKRSLARFCGGGSGGSGGGSWMEEVIKLCGRELVRAQIAICGMSTWS", "READOUT_UNITS": "M⁻¹ s⁻¹", "kon": "1.1e+06"}
{"BINDER": "RLN Analog 11 (other, Single-chain fusion: VHH - (G4Q)5 L1 - RLN2 B chain (desB1) - L2 of thirteen residues - RLN2 A chain (desA1-4)) EVQLLESGGGLVQPGGSLRLSCAASGRYIDETAVAWFRQAPGKEREFVAGIGGGVDITYYADSVKGRFTISRDNSKNTLYLQMNSLRPEDTAVYYCAARPGRPLITSKVADLYPYWGQGTLVTVSSGGGGQGGGGQGGGGQGGGGQGGGGQSWMEEVIKLCGRELVRAQIAICGMSTWSGGGSGGSGGSGGGALANKCCHVGCTKRSLARFC", "READOUT_UNITS": "M⁻¹ s⁻¹", "kon": "1.4e+06"}
{"BINDER": "RLN Analog 4 (other, Single-chain fusion: VHH - (PGPQ)8 L1 - RLN2 B chain (desB1) - L2 - RLN2 A chain) EVQLLESGGGLVQPGGSLRLSCAASGRYIDETAVAWFRQAPGKEREFVAGIGGGVDITYYADSVKGRFTISRDNSKNTLYLQMNSLRPEDTAVYYCAARPGRPLITSKVADLYPYWGQGTLVTVSSPGPQPGPQPGPQPGPQPGPQPGPQPGPQPGPQSWMEEVIKLCGRELVRAQIAICGMSTWSGGGSGGSGGGQLYSALANKCCHVGCTKRSLARFC", "READOUT_UNITS": "M⁻¹ s⁻¹", "kon": "1.3e+06"}
